test system: MDA-MB-468 breast; experiment: NCI tumour cell line growth inhibition, 48 h
parameter-measured: TGI (µM)
Respond numerically; units are µM and should not be typed.

Q. Please report the recorded TGI for CCN=c1cc2sc3cc(NCC)c(C)cc3nc-2cc1C .
A. 5.57

Q. Please report the recorded TGI for CCN(CC)CCOc1ccc(C(=C(C)Cc2ccc(OC)cc2)c2ccc(OCCN(CC)CC)cc2)cc1 .
A. 6.65

Q. Please report the recorded TGI for CCOc1ccc(Nc2nc(-c3ccc4c(c3)NC(=O)CO4)cs2)cc1 .
A. 8.04

Q. Please report the recorded TGI for O=C(N/N=C/c1ccccc1Cl)c1ccccc1Nc1ccnc(C(F)(F)F)c1 .
A. 11.1

Q. Please report the recorded TGI for O=C([O][Hg][CH2]C1COCC([CH2][Hg][O]C(=O)c2ccccc2)O1)c1ccccc1 (stereo unspecified) .
A. 3.24

Q. Please report the recorded TGI for O=CN1N=C(c2ccc(Cl)cc2)CC1c1cccc(Nc2ccnc3cc(Cl)ccc23)c1 (stereo unspecified) .
A. 3.93

Q. Please report the recorded TGI for COc1c(Cl)c2c(c(OC)c1OC)-c1ccc(SC)c(=O)cc1[C@@H](NC(=O)OCC(F)(F)F)CC2 .
A. 17.3

Q. Please report the recorded TGI for COc1ccc(-c2nc3ncccn3c2/C=C/C(=O)c2cc(OC)c(OC)c(OC)c2)cc1 .
A. 3.65

Q. Please report the recorded TGI for CCCN1CCN(c2ccc3nc(-c4ccc5nc(-c6cc(OC)ccc6OC)[nH]c5c4)[nH]c3c2)CC1 .
A. 3.31

Q. Please report the recorded TGI for Cc1cc(N2CCCC2)nc(NC2CCCC(Nc3ccnc4cc(Cl)ccc34)C2)n1 (stereo unspecified) .
A. 3.14

Q. Please report the recorded TGI for CC1(C)CC(n2cnc(-c3ccc(F)cc3)c2-c2ccnc(N)n2)CC(C)(C)N1 .
A. 24.2

The measured values listed here are drawn from PubChem BioAssay (NCI).
